Entry source: the RNAGym collection of RNA variant scans (doi:10.7554/elife.80360)

B1: Twister Ribozyme (parent)
chain: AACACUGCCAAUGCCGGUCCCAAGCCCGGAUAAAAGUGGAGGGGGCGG

Variants of: B1
method description: self-cleavage, relative activity (ratio to wild type); higher = more cleavage; co-transcriptional
Would you please tag the item 1 when its self-cleavage is 0.2 or above, and 0 when it is below?

Exam item: decide whether the reported self-cleavage for A4U C26U is at least 0.2. 0
